// provenance: BigSolDB 2.1

Details: in PEG-400, 298.15 K
test-readout: solubility (mole fraction)

Param item = `COc1ccc2c(c1)c(CC(=O)O)c(C)n2C(=O)c1ccc(Cl)cc1` ; retrieve measured solubility (mole fraction).
0.0831

###

Conditions: in PEG-400, 318.15 K
test-readout: solubility (mole fraction)

Param item = `COc1ccc2c(c1)c(CC(=O)O)c(C)n2C(=O)c1ccc(Cl)cc1` ; retrieve measured solubility (mole fraction).
0.127

###

Conditions: in water, 298.15 K
test-readout: solubility (mole fraction)
Simply state the number, no unit and no words.

Param item = `COc1ccc2c(c1)c(CC(=O)O)c(C)n2C(=O)c1ccc(Cl)cc1` ; retrieve measured solubility (mole fraction).
5e-08
